All figures here come from ChEMBL document CHEMBL1201862.

# Assayed target: Ataxin-2 (Homo sapiens) (UniProt Q99700)
# Sequence (Q99700 whole entry): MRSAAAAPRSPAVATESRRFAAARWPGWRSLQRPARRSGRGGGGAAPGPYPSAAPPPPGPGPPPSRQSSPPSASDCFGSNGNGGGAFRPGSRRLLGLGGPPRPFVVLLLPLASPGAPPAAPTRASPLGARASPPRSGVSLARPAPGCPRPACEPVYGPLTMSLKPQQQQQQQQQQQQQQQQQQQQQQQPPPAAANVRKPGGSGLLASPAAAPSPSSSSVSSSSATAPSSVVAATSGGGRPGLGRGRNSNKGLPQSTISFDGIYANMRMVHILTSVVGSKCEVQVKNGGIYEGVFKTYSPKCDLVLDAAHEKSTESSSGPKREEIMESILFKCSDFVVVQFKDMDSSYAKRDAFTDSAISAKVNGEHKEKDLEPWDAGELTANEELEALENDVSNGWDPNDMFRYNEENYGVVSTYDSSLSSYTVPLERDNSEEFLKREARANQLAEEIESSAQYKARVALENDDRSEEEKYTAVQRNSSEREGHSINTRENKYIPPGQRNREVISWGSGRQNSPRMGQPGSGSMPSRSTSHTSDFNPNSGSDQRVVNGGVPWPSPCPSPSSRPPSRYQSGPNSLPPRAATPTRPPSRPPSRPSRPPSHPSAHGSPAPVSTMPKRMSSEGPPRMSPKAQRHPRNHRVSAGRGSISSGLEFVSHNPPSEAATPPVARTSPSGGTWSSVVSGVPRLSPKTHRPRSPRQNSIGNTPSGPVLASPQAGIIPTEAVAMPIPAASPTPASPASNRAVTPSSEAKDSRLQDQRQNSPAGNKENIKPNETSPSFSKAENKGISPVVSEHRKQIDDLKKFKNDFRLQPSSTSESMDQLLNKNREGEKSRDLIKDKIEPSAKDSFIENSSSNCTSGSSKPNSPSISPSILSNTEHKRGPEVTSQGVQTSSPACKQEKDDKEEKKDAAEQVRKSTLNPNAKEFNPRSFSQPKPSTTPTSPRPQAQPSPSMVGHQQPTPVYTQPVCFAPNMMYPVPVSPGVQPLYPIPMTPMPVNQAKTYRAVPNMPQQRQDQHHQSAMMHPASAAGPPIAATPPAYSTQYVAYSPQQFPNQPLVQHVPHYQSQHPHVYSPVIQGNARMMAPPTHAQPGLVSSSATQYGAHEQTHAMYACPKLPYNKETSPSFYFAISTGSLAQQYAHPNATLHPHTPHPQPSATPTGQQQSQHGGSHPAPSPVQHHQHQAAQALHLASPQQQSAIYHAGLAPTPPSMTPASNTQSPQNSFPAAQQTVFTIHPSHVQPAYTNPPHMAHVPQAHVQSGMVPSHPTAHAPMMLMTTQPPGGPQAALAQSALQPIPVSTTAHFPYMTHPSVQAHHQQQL
# Measurement description: qHTS for Inhibitors of ATXN expression.
# Type: functional
The campaign covered roughly 400,000 compounds. About 2,100 (0.53%) were called active. Another 14% or so got no clear call; they are omitted. This is one part of a sample in which actives are shown more often than they occur.
Endpoint label: Potency

[[record]]
compound = "O=C(CSc1nccc(-c2cccs2)n1)Nc1cccc(Cl)c1Cl"
endpoint_label = "Potency"
value_observed = "inactive"

[[record]]
compound = "COc1ccccc1C1C=C(c2ccc(Cl)cc2)Nc2nc(N3C(=O)CCC3=O)nn21 (stereo unspecified)"
endpoint_label = "Potency"
value_observed = "inactive"

[[record]]
compound = "O=C(c1cnc2nc3ccccc3n2c1)c1cc(F)ccc1O"
endpoint_label = "Potency"
value_observed = "inactive"

[[record]]
compound = "Cc1ccc(NC(=O)CSC(C)C(=O)OCc2cc(=O)oc3cc(O)ccc23)cc1 (stereo unspecified)"
endpoint_label = "Potency"
value_observed = "inactive"

[[record]]
compound = "Cc1nn(C(=O)CCCC(=O)NCc2ccccc2)c2ccccc12"
endpoint_label = "Potency"
value_observed = "inactive"

[[record]]
compound = "Cc1ccc(CN2CCSCC2)cc1"
endpoint_label = "Potency"
value_observed = "inactive"

[[record]]
compound = "O=C(c1ccc([N+](=O)[O-])cc1)N1CCC(n2nnc3cc(F)ccc32)CC1"
endpoint_label = "Potency"
value_observed = "inactive"

[[record]]
compound = "Cc1ccc(-c2cc(C(=O)N3CCN(c4ncccn4)CC3)c3cc(Br)ccc3n2)o1"
endpoint_label = "Potency"
value_observed = "inactive"

[[record]]
compound = "CCC(C)NCC(=O)Nc1ccc(-c2nc3cc(NC(=O)CNC(C)CC)ccc3o2)cc1 (stereo unspecified)"
endpoint_label = "Potency"
value_observed = "22.4 µM (active)"

[[record]]
compound = "COc1ccc(C2=CC(c3ccc(N(C)C)cc3)n3nnnc3N2)cc1 (stereo unspecified)"
endpoint_label = "Potency"
value_observed = "inactive"

[[record]]
compound = "CCOCCCn1c(=N)c(C(=O)NCc2ccco2)cc2c(=O)n3ccccc3nc21"
endpoint_label = "Potency"
value_observed = "inactive"

[[record]]
compound = "COc1ccccc1C1c2c(-c3ccc(Cl)cc3)n[nH]c2C(=O)N1c1ccc(C)cc1 (stereo unspecified)"
endpoint_label = "Potency"
value_observed = "39.8 µM (active)"

[[record]]
compound = "CCCCC[C@H]1CN(C2CCCCC2)C(=O)[C@@H]1CC(=O)NCc1ccccc1"
endpoint_label = "Potency"
value_observed = "39.8 µM (active)"

[[record]]
compound = "COc1ccccc1C1C=C(c2ccc(F)cc2)Nc2nc(-c3ccc(Cl)cc3)nn21 (stereo unspecified)"
endpoint_label = "Potency"
value_observed = "inactive"

[[record]]
compound = "COn1c(C)c(C)c2c3nonc3ccc21"
endpoint_label = "Potency"
value_observed = "inactive"

[[record]]
compound = "CCOc1ccc(C(=O)C2=C(O)C(=O)N(c3ncccn3)C2c2ccc(C)cc2)cc1 (stereo unspecified)"
endpoint_label = "Potency"
value_observed = "inactive"

[[record]]
compound = "C=CCn1c2ccccc2c2nnc(SCCCn3c(=O)[nH]c4ccccc43)nc21"
endpoint_label = "Potency"
value_observed = "39.8 µM (active)"

[[record]]
compound = "O=C1c2[nH]nc(-c3ccc(F)cc3)c2C(c2ccccc2F)N1c1ccccc1 (stereo unspecified)"
endpoint_label = "Potency"
value_observed = "22.4 µM (active)"

[[record]]
compound = "Cc1ccc(N2C(=O)c3[nH]nc(-c4ccc(Cl)cc4)c3C2c2ccc(F)cc2)cc1 (stereo unspecified)"
endpoint_label = "Potency"
value_observed = "39.8 µM (active)"

[[record]]
compound = "O=C(CC1CCCCC1)NCc1nc(-c2ccccc2)no1"
endpoint_label = "Potency"
value_observed = "inactive"

[[record]]
compound = "O=C1OCCN1C(=O)[C@H]1[C@H](c2ccc(Cl)cc2)C(c2ccc(F)cc2)=NN1c1ccc(Br)cc1"
endpoint_label = "Potency"
value_observed = "inactive"

